target: Integrin alpha-V/beta-3 (Homo sapiens, UniProt P05106+P06756); experiment: Inhibition of alphaV-beta3 interaction with vitronectin; type: protein-complex assay
Sequence (P05106 27-788 limits assumed): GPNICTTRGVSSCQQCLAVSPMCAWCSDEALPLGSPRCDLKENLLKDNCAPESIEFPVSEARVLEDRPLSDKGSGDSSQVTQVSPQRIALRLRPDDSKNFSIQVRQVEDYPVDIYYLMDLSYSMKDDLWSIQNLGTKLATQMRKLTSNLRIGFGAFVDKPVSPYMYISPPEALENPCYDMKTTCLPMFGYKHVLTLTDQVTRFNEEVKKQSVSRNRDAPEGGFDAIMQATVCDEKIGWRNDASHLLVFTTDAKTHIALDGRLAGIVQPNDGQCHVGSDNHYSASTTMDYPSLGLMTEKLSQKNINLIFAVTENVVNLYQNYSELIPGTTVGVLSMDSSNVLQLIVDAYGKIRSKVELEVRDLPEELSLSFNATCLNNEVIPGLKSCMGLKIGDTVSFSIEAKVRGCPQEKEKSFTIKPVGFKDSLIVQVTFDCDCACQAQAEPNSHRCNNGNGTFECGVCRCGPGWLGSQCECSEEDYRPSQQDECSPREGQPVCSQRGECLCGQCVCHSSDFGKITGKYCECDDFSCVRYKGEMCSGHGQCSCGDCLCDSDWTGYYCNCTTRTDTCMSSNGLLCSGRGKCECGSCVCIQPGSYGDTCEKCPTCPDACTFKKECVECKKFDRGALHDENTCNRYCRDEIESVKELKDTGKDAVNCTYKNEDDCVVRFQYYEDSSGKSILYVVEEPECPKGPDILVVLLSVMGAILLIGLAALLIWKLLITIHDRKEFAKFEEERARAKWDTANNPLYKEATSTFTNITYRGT
Sequence (P06756 31-889 limits assumed): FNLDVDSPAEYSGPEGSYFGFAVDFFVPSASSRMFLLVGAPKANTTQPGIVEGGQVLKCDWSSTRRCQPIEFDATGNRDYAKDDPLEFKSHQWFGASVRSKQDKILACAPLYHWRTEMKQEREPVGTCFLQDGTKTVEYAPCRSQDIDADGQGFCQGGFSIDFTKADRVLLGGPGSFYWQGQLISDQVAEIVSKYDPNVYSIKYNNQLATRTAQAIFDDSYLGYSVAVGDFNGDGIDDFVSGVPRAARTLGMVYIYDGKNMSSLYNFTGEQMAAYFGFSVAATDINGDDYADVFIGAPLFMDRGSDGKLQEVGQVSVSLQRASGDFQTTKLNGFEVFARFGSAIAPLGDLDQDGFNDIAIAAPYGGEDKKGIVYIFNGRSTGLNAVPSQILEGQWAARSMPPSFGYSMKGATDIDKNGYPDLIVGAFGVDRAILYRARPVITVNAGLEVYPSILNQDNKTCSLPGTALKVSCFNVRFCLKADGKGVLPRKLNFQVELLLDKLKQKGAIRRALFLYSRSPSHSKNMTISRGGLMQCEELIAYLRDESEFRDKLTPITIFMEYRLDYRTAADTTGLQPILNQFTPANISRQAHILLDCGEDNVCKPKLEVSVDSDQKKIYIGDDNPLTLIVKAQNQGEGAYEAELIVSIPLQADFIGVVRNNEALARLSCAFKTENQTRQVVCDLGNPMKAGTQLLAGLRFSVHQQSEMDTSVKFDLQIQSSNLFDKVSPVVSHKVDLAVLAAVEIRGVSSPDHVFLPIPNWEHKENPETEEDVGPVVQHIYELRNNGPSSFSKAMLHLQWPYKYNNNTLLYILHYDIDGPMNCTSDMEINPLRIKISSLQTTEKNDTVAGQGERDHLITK
Sequence (P06756 891-1048 limits assumed): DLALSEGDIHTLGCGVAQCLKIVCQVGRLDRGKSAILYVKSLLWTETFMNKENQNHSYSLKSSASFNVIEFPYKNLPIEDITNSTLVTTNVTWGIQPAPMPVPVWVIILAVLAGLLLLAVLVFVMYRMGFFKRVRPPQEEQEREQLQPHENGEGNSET
Peptide text beside a SMILES is read from it.
Recorded pIC50 values for a group of molecules are listed next.
// returns pIC50 (minus log10 of molar concentration), number only

{"molecule": "NC(N)=NCCC[C@H](NC(=O)[C@H](CC(=O)O)NC(=O)CNC(=O)[C@@H](N)CCCN=C(N)N)C(=O)NCC(=O)N[C@@H](CC(=O)O)C(=O)O (H-RGDRGD-OH)", "quantity": "pIC50", "endpoint-result": 7.15}
{"molecule": "N=C(N)NCCC[C@@H]1NC(=O)[C@H](CC(=O)O)NC(=O)CNC(=O)[C@H](CCCNC(=N)N)NC(=O)[C@H](CC(=O)O)NC(=O)CNC1=O", "quantity": "pIC50", "endpoint-result": 6.85}

As a next step, examine the molecule that follows.
## Input # get_value(readout='pIC50', item= N=C(N)NCCC[C@@H]1NC(=O)[C@H](CC(=O)O)NC(=O)CNC(=O)[C@H](CCCNC(=N)N)NC(=O)[C@@H](CC(=O)O)NC(=O)CNC1=O )
## Output 6.49
